test: Absorption edge of visible light photoinitiators; format: physicochemical
experimental.endpoint: Abs. edge (nm)
# number only, unit nm dropped from output

The following molecules have reported results that may help.
C[CH2][Ge]([CH2]C)([C](=O)c1ccc(OC)cc1)[C](=O)c1ccc(OC)cc1
470
CCc1ccccc1[C](=O)[Ge]([C](=O)c1ccccc1CC)([C](=O)c1ccccc1CC)[C](=O)c1ccccc1CC
490
Cc1cc(C)c([C](=O)[Sn]([C](=O)c2c(C)cc(C)cc2C)([C](=O)c2c(C)cc(C)cc2C)[C](=O)c2c(C)cc(C)cc2C)c(C)c1
510

The record that follows has no Abs. edge (nm) shown yet.
Query block: Suppose we examine the molecule C[CH2][Ge]([CH2]C)([C](=O)c1ccccc1)[C](=O)c1ccccc1 ; what Abs. edge (nm) value has been reported?
Result block: 480
